target: OCT2 (Homo sapiens, UniProt O15244); assay: inhibition of ASP+ uptake in HEK293 cells over-expressing OCT2
Sequence (O15244 whole entry): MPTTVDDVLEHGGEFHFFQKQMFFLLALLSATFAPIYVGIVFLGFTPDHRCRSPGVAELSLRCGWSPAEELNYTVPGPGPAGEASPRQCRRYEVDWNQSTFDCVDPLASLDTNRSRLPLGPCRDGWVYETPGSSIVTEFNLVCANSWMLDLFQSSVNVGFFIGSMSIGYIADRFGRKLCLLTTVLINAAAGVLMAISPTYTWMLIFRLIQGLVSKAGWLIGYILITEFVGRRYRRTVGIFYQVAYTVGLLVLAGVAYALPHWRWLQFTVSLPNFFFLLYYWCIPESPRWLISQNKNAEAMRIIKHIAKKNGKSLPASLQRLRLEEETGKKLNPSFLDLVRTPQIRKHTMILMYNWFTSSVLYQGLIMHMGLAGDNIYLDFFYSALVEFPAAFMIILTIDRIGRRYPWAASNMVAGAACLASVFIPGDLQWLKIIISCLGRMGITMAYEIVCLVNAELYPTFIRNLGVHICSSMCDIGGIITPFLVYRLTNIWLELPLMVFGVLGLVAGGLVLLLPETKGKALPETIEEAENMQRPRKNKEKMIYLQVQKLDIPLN
readout name: IC50

Req: Dear colleague, please send me the reported IC50 for `CN1CCN(CCOc2cc(OC3CCOCC3)c3c(Nc4c(Cl)ccc5c4OCO5)ncnc3c2)CC1` when you can.
Resp: 460 nM

###

Target: OCT1 (Homo sapiens, UniProt O15245)
Sequence (O15245 1-554): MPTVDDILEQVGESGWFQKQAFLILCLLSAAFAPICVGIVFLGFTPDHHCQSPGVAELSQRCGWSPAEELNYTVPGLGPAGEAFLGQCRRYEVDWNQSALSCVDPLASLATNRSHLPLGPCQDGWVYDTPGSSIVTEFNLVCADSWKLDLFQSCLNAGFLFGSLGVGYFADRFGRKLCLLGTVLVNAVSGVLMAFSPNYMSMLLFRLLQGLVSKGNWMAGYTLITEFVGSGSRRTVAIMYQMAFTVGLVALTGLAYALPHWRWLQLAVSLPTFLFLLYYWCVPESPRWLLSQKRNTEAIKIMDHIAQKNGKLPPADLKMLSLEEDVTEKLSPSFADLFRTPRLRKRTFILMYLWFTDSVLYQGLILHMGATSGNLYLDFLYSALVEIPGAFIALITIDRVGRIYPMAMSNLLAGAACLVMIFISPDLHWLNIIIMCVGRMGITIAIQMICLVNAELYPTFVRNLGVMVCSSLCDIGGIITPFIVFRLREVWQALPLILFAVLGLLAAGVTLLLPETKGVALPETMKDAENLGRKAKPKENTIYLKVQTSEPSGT
Test: inhibition of ASP+ uptake in HEK293 cells over-expressing OCT1
readout name: IC50 (µM)
// return numeric value only (unit: µM, not printed)

Req: Dear colleague, please send me the reported IC50 for CN1CCN(CCOc2cc(OC3CCOCC3)c3c(Nc4c(Cl)ccc5c4OCO5)ncnc3c2)CC1 [saracatinib] when you can.
Resp: 27.1

Just for reference, paper PMC2906706 is where these values come from.
